test: in vitro; conditions: human
Reported viability at 48 h, 1 µM values for the following compounds.

Compound: CCC(CC)c1cc([C@H]2CN3CC[C@H]2C[C@@H]3CN[S+](=O)([O-])c2cccs2)nc(-c2ccncc2)n1 [NCGC00396883-01]
viability at 48 h, 1 µM [%]: 99.7
//
Compound: COc1ccc(-c2cc([C@H]3CN4CC[C@H]3C[C@@H]4CN[S+](=O)([O-])c3ccc(Cl)cc3)n(C)n2)cc1OC [NCGC00399828-01]
viability at 48 h, 1 µM [%]: 98.9
//
Compound: Cc1ccc(Cl)cc1NC(=O)c1cc2ccccc2cc1O [MLS000738149-01]
viability at 48 h, 1 µM [%]: 104
//
Compound: O=C(Nc1ccccc1)OC[C@H]1C[C@@H]2CCN1C[C@@H]2c1cc(C2CCCC2)nc(-c2ccncc2)n1 [NCGC00421344-01]
viability at 48 h, 1 µM [%]: 101
//
Compound: COc1cccc([C@@H]2CCN(Cc3[nH]c4ccccc4c3C)C[C@H]2O)c1 [NCGC00443267-01]
viability at 48 h, 1 µM [%]: 91.9
//
Compound: CCOc1cc(C2NCc3ccccc3-n3cccc32)ccc1O (centres unmarked) [MLS000047991-01]
viability at 48 h, 1 µM [%]: 97
//
Compound: Cc1cc(O)c(CN2CC=C(c3ccccc3)CC2)cc1C(C)C [MLS001176749-01]
viability at 48 h, 1 µM [%]: 106
//
Compound: CC(NCc1ccc(Cl)cc1Cl)C(O)c1ccccc1 (centres unmarked) [MLS000582862-01]
viability at 48 h, 1 µM [%]: 120

====

assay: in vitro; settings: human, HepG2-A16-CD81EGFP cells, uninfected

Compound: CC(NCc1ccccc1)c1ccccc1O (centres unmarked)
viability at 66 h: 96.3%
//
Compound: CCn1c2c(c(=N)c3c1CCC3)CCCC2
viability at 66 h: 100%
//
Compound: COc1ccc(N2/C(=C/C(C)=O)NC(=O)c3c(C)cc(C)nc32)cc1
viability at 66 h: 103%
//
Compound: O=C1/C(=C/Nc2cccc(S(=O)(=O)NC3=NCCCCC3)c2)c2ccccc2C(=O)N1Cc1ccccc1
viability at 66 h: 93.2%
//
Compound: CCOC(=O)Cn1c2c(c(=N)c3c1CCC3)CCC2
viability at 66 h: 99.5%
//
Compound: COC(=O)[C@]1(C)CCC[C@@]2(C)C3CC[C@@]4(C)C[C@]3(CCC21)CC(=O)N4Cc1ccc(OC)cc1 (some centres unmarked)
viability at 66 h: 96.7%
//
Compound: Cc1cnc(C(=O)Nc2cccc3cccnc23)cn1
viability at 66 h: 105%
//
Compound: Cc1cc(O)c(-c2cc(C(=O)Nc3sc4c(c3C(=O)NCc3ccco3)CCC4)[nH]n2)cc1C
viability at 66 h: 106%
//
Compound: CC(C)Oc1ccc(C(CCNCc2ccc(O)cc2)c2ccccc2)cc1 (centres unmarked)
viability at 66 h: 102%
//
Compound: O=C(Nc1ccc(-c2csc(Nc3ccccc3)n2)cc1)c1cc([N+](=O)[O-])cc(C(F)(F)F)c1
viability at 66 h: 104%
//
Compound: Cc1ccc(Oc2ccc(NC(=O)c3ccco3)cc2)cc1
viability at 66 h: 95.1%
//
Compound: Cc1ccc2[nH]c(C(=O)Nc3ccc(F)cc3)cc2c1
viability at 66 h: 99.7%
//
Compound: CCOC(=O)Cn1c2c(c(=N)c3c1CCC3)CCCC2
viability at 66 h: 106%
//
Compound: CCCCN(C)[S+](=O)([O-])c1ccc(C(=O)Nc2ccc(-c3nc4ccc(C)cc4s3)cc2)cc1
viability at 66 h: 103%
//
Compound: O=C1C(c2ccccc2)=[N+](O)c2ccccc21
viability at 66 h: 97.9%
//
Compound: COc1cc2c(cc1O)CC[n+]1cc3c(OC)c(OC)ccc3cc1-2
viability at 66 h: 97.8%
//
Compound: CCc1cc(C(=O)c2ccccc2)c(N)s1
viability at 66 h: 107%
//
Compound: Oc1ccc(Nc2ccnc3cc(Cl)ccc23)cc1
viability at 66 h: 96.9%
//
Compound: CCN1CCN(Cc2ccc(NC(=O)c3cc(NC(=O)C(=O)c4c[nH]c5ccccc45)cc(OC)c3)cc2C(F)(F)F)CC1
viability at 66 h: 105%
//
Compound: c1ccc(CCNc2ccnc3cc4ccccc4cc23)cc1
viability at 66 h: 93.8%
//
Compound: COc1ccc(C2CC(c3cccs3)=NN2C(=O)c2ccco2)cc1OC (centres unmarked)
viability at 66 h: 101%
//
Compound: Oc1ccccc1Nc1nc(-c2ccccc2O)nc2ccccc12
viability at 66 h: 101%
//
Compound: CCc1ccc(Nc2cc(=O)n(C3CCCCC3)c(=O)[nH]2)cc1
viability at 66 h: 104%
//
Compound: CCCC(=O)Nc1sc2c(c1C(=O)Nc1ccccn1)CCCC2
viability at 66 h: 101%
//
Compound: COc1ccccc1NS(=O)(=O)c1cc(NC(=O)c2ccc(Cl)nc2)ccc1Cl
viability at 66 h: 96.5%
//
Compound: CCCn1c2c(c(=N)c3c1CCC3)CCCC2
viability at 66 h: 93.8%
//
Compound: CN(C)c1cc[n+](CC(=O)c2cccs2)cc1
viability at 66 h: 101%
//
Compound: COc1ccc(CCNC(=O)c2cc(C(=O)c3cc(Cl)ccc3O)cn(CCc3ccc(OC)cc3)c2=O)cc1
viability at 66 h: 105%
//
Compound: CN1CCC(NCCC(c2ccc(F)cc2)c2ccc(Cl)cc2)CC1 (centres unmarked)
viability at 66 h: 98.6%
//
Compound: O=C1c2cc(F)ccc2-n2c1nc1ccccc1c2=O
viability at 66 h: 95.7%
//
Compound: O=S(=O)(Nc1cc2nc3ccccc3nc2n1Cc1ccccc1)c1ccc(Cl)cc1
viability at 66 h: 103%
//
Compound: Cc1onc(-c2ccc(Cl)cc2)c1-c1ccnn1S(=O)(=O)c1ccc(Cl)cc1
viability at 66 h: 100%
//
Compound: O=C(NCCCN1CCCC1)c1ccc2c(c1)N([S+](=O)([O-])c1ccccc1F)CC2
viability at 66 h: 97.4%
//
Compound: c1ccc(-[n+]2nc(Nc3cccc4ccccc34)sc2-c2c3ccccc3cc3ccccc23)cc1
viability at 66 h: 95.1%
//
Compound: COC(CSc1nc(N)c2c3c(sc2n1)CN(C)CC3)OC
viability at 66 h: 97.5%

====

Reported AC50 values for the following molecules.
Test system: P. falciparum Dd2 Cytb G131S
Experiment: SYBR Green ABS proliferation assay, NCGC00374598 selected clone C11
Format: cell-based, Plasmodium falciparum
Conditions: Plasmodium falciparum, DD2, […]; averaged from three independent replicates; top concentration 29 µM; read-out: Average AC50 (Log[M]), NCGC00374598 clone C11 (Cytb G131S) (converted)
Description: As resistance selection studies implicated the parasite cytochrome bc1 complex in mediating reduced parasite susceptibility to both NCGC00473217 and NCGC00374598, we leveraged these drug-selected parasites to test for altered drug response to a panel of antimalarial compounds. The P. falciparum parasite Dd2 line was cultured in vitro using standard conditions. […] Significant differences were assessed using two-sided Student’s t-tests. All HTS assays were stopped and read at 72 h. […]

Molecule: CCCN1C(CC(C)C)=N[S+](=O)([O-])c2cc(NC(=O)c3sccc3C)ccc21 [NCGC00521035-01]
AC50 (M): 1.65e-06

Molecule: CCCN1C(CC(C)C)=N[S+](=O)([O-])c2cc(NC(=O)c3ncccn3)ccc21 [NCGC00521149-01]
AC50 (M): 1.59e-05

Molecule: CCCN1C(CC(C)C)=N[S+](=O)([O-])c2cc(NC(=O)c3ccco3)ccc21 [NCGC00473219-02]
AC50 (M): 3.17e-06

Molecule: CCCN1C(C)=N[S+](=O)([O-])c2cc(NC(=O)c3ccccc3)ccc21 [NCGC00522605-01]
AC50 (M): 2e-06

Molecule: CCCN1C(CC(C)C)=N[S+](=O)([O-])c2cc(NC(=O)c3ccc(F)s3)ccc21 [NCGC00523537-01]
AC50 (M): 3.17e-07

Molecule: CCCN1C(CC(C)C)=N[S+](=O)([O-])c2cc(NC(=O)c3ccccc3)ccc21 [NCGC00510420-02]
AC50 (M): 4.23e-07

Molecule: CCCN1C(CC(C)C)=N[S+](=O)([O-])c2cc(NC(=O)c3ncco3)ccc21 [NCGC00521053-01]
AC50 (M): 1.12e-05

Molecule: CCCN1C(CC(C)C)=N[S+](=O)([O-])c2cc(NC(C)=O)ccc21 [NCGC00521093-01]
AC50 (M): 2e-05

====

molecular target: Firefly luciferase (Fluc, EC 1.13.12.7) (Photinus pyralis, UniProt P08659); experiment: biochemical; design: single determination (the paper says generally: 'qHTS assays were performed in a single replicate with a 7- to 11-point dose response format'; it is not stated for this counterscreen itself)
Sequence (P08659 whole entry): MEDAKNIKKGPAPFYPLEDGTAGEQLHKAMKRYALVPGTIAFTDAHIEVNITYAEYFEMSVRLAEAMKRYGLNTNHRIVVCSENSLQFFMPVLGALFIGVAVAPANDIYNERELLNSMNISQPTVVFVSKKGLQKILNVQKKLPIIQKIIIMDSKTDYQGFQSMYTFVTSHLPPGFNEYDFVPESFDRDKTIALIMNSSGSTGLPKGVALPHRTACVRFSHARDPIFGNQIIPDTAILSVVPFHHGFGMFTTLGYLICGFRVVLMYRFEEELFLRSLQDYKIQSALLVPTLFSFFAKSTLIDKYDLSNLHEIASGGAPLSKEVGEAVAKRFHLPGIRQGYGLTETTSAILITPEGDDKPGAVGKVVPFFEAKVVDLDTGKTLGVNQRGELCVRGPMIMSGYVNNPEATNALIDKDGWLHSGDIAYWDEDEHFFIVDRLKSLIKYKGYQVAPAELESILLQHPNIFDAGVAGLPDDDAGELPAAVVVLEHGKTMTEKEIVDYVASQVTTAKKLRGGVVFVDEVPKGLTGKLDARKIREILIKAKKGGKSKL
Reported AC50 values for the following compounds.
Property Name: AC50 (µM)

Compound: O=C1c2cnc(-c3cc4ccccc4o3)nc2OCCN1c1ccccc1 [NCGC00413607-01]
Value Units: µM
Measurement: 0.622

Compound: CCCc1ccc(C(=O)NC(=O)c2ccccc2O)cc1 [MLS000850457-01]
Value Units: µM
Measurement: 5.41

Compound: Cc1ccc(C(=O)NCCn2c(C)cc3ccccc32)cc1C [NCGC00107199-01]
Value Units: µM
Measurement: 4.3

Compound: CCOc1ccc(NC(=O)c2ccc3c(c2)N(C)C2CCCN2C3=O)cc1 (stereo not shown) [NCGC00452128-01]
Value Units: µM
Measurement: 21.5

Compound: CCN(CC)CCN1C(=O)c2ccccc2NC1c1ccc(N(C)C)cc1 (stereo not shown) [MLS000554078-01]
Value Units: µM
Measurement: 1.92

Compound: C/C(=N\OCc1cccc(C(=O)O)c1)c1ccc(Cl)cc1 [MLS000850591-01]
Value Units: µM
Measurement: 0.0136

Compound: COc1ccc(C(=O)C=CNc2cc(C)ccn2)cc1 [MLS001043227-01]
Value Units: µM
Measurement: 8.57

Compound: COC(=O)c1nn(-c2ccc3c(c2)CCN3C(C)=O)cc1O [MLS000565173-01]
Value Units: µM
Measurement: 10.8

Compound: CCc1ccc(C2=CC(c3cccc(C)c3)n3c(nc4ccccc43)N2)cc1 (stereo not shown) [NCGC00140745-01]
Value Units: µM
Measurement: 4.82

Compound: NC(=NOC(=O)c1cccc(F)c1)c1ccccn1 [MLS001075504-01]
Value Units: µM
Measurement: 10.8

Compound: CC1(C)Cc2nc3sc4c(SCC(=O)O)ncnc4c3cc2CO1 [MLS000778156-01]
Value Units: µM
Measurement: 10.8

Compound: O=C(NCCC1=CCCCC1)C1CCN(C(=O)c2ncn3c2COC(c2ccccc2)C3)CC1 (stereo not shown) [NCGC00449771-01]
Value Units: µM
Measurement: 21.5

Compound: Cc1cccnc1Nc1nc(-c2ccccn2)cs1 [MLS000528306-01]
Value Units: µM
Measurement: 19.2

Compound: Cc1ccc(-c2cc(O)c3cc(C)ccc3n2)cc1 [MLS000517822-01]
Value Units: µM
Measurement: 12.1

Compound: COc1ccc(NC(=O)c2cccc3c2CCN3C(=O)Nc2ccc(F)cc2)c(C)c1 [NCGC00430188-01]
Value Units: µM
Measurement: 7.64

Compound: O=C(COc1ccc2ccccc2c1)Nc1nccs1 [MLS000718732-01]
Value Units: µM
Measurement: 8.57
